Assay: Plasma pharmacokinetics
Format: in vivo, human
Settings: human, plasma, oral, 140 mg, C max, mean ± SD, Steady state (cycle 1, day 8); Total N = 16; 140 mg once daily

molecule | unit.of.measure | Cmax
CNC(=O)n1ccc2cc(Oc3ccnc(NC(=O)c4ccc(C5CCN(CCO)CC5)cc4)c3)c(OCCOC)cc21 [Tasurgratinib] | ng/mL | 219

---

Assay: Plasma pharmacokinetics
Type: in vivo, human
Settings: human, plasma, oral, 140 mg, AUC0–tau, mean ± SD, Steady state (cycle 1, day 8); Total N = 16; 140 mg once daily
assay.metric: AUC (ng·h/mL)

molecule.smiles | unit.of.measure | numeric.result
CNC(=O)n1ccc2cc(Oc3ccnc(NC(=O)c4ccc(C5CCN(CCO)CC5)cc4)c3)c(OCCOC)cc21 | ng·h/mL | 3080
